Test system: diabetes mellitus+NASH model mice
Test protocol: Diabetes mellitus + non-alcoholic steatohepatitis (NASH) model
Format: in vivo, mouse
Stated conditions: 50 mg/kg intragastric once a day for 28 days
Below: a set of entries, each annotated with reported CREA.
Metric: CREA

{"Molecule": "Cc1ccc(C)c(OCCCC(C)(C)C(=O)O)c1 [gemfibrozil, Gemfibrozil, reference compound]", "Metric": "CREA", "Observed": "22.29 ± 3.45 µmol/L"}
{"Molecule": "Cc1cc(OCCCC(C)(C)C(=O)O)c(C)cc1F [BJMU-3]", "Metric": "CREA", "Observed": "21.33 ± 10.52 µmol/L"}
{"Molecule": "Cc1cc(OCCCC(C)(C)C(=O)O)c(C)cc1Cl [BJMU-1]", "Metric": "CREA", "Observed": "19 ± 1.63 µmol/L"}
{"Molecule": "Cc1cc(OCCCC(C)(C)C(=O)O)c(C)cc1Br [BJMU-2]", "Metric": "CREA", "Observed": "22.5 ± 7.12 µmol/L"}

* * *

Each entry below lists one item and its recorded ALDL (low density lipoprotein) value.
System: diabetes mellitus+NASH model mice
Test protocol: Diabetes mellitus + non-alcoholic steatohepatitis (NASH) model
Format: in vivo, mouse
Stated conditions: 50 mg/kg intragastric once a day for 28 days
Experimental: Animal model: Each db/db mouse was injected subcutaneously with 40% CCl4 solution (Beijing Tongguang Fine Chemical Co., Ltd.) at a dose of 0.72 mg/100 g for 4 consecutive weeks to obtain a diabetes mellitus+NASH model. […] Blood glucose was measured every week, and blood glucose difference (Δ) was calculated by the following formula: blood glucose difference (Δ)=the blood glucose of the day—the initial blood glucose (the initial blood glucose difference was zero). […]
Metric: ALDL (low density lipoprotein) (mmol/L)

{"Compound": "Cc1cc(OCCCC(C)(C)C(=O)O)c(C)cc1F", "Unit of measure": "mmol/L", "Observed": 0.52}
{"Compound": "Cc1cc(OCCCC(C)(C)C(=O)O)c(C)cc1Cl", "Unit of measure": "mmol/L", "Observed": 0.49}
{"Compound": "Cc1ccc(C)c(OCCCC(C)(C)C(=O)O)c1 [gemfibrozil, Gemfibrozil, reference compound]", "Unit of measure": "mmol/L", "Observed": 0.7}
{"Compound": "Cc1cc(OCCCC(C)(C)C(=O)O)c(C)cc1Br", "Unit of measure": "mmol/L", "Observed": 0.48}

* * *

The following molecules are listed with their measured AST values.
System: diabetes mellitus+NASH model mice
Test protocol: Diabetes mellitus + non-alcoholic steatohepatitis (NASH) model
Type: in vivo, mouse
Stated conditions: 50 mg/kg intragastric once a day for 28 days
Metric: AST (U/L)

{"Molecule": "Cc1ccc(C)c(OCCCC(C)(C)C(=O)O)c1 [gemfibrozil, Gemfibrozil, reference compound]", "Unit of measure": "U/L", "Observed": 235.14}
{"Molecule": "Cc1cc(OCCCC(C)(C)C(=O)O)c(C)cc1F", "Unit of measure": "U/L", "Observed": 257}
{"Molecule": "Cc1cc(OCCCC(C)(C)C(=O)O)c(C)cc1Cl", "Unit of measure": "U/L", "Observed": 216.43}
{"Molecule": "Cc1cc(OCCCC(C)(C)C(=O)O)c(C)cc1Br", "Unit of measure": "U/L", "Observed": 233.67}
